- system name: TAFIa (Homo sapiens)
- Construct: purchased American Diagnostica Pr; No. 874
- Sequence (Q96IY4 115-423): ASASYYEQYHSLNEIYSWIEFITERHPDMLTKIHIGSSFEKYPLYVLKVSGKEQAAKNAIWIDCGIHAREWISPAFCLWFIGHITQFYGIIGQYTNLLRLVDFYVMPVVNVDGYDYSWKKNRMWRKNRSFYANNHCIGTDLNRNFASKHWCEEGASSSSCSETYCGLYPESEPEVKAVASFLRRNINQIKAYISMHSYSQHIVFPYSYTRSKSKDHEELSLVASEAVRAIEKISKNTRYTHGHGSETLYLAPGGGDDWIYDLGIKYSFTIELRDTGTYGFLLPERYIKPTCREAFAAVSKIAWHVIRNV
- assay name: biochemical
- condition set: enzymatic inhibition assay, duplicate determination; read-out: IC50 in nM against TAFIa
Numbered stars: 1 amine (or outer) side, 2 acyl side, 3 side chain; on linkers, the order of the positions; unused ones are H or OH. Bridge positions count the residues as written; N and C are the ends. Square brackets hold non-standard residues; d marks the D form. Peptide text beside a SMILES is read from it. X1 = O=C([C@H](CCc1ccc(O)c(Cl)c1)N[*:1])[*:2]; Nle(6-Ph) = N[C@@H](CCCCc1ccccc1)C(=O)O; d(aIle) = CC[C@H](C)[C@@H](N)C(=O)O; hTyr = N[C@@H](CCc1ccc(O)cc1)C(=O)O; aIle = CC[C@@H](C)[C@H](N)C(=O)O; hPhe = N[C@@H](CCc1ccccc1)C(=O)O; NMeN = CN[C@@H](CC(N)=O)C(=O)O; NMeS = CN[C@@H](CO)C(=O)O; NMeA = CN[C@@H](C)C(=O)O; CO = O=C([*:1])[*:2]; Sar = CNCC(=O)O
observed property: log10(IC50) (log10 of the value in nM)

compound	measured value
CC[C@@H](C)C1NC(=O)[C@H](NC(=O)N[C@@H](Cc2ccccc2)C(=O)O)CCCCNC(=O)[C@H](CCc2ccccc2)NC(=O)CN(C)C(=O)[C@H](CCc2ccc(O)c(Cl)c2)NC1=O (stereo partly drawn) [Compound 9, Anabaenopeptin SA9]	4.49
CC(C)[C@@H]1NC(=O)[C@H](NC(=O)N[C@@H](Cc2ccc(O)cc2)C(=O)O)CCCCNC(=O)[C@H](Cc2ccccc2)NC(=O)[C@H](C)N(C)C(=O)[C@H](CCc2ccc(O)cc2)NC1=O [Compound 13, Anabaenopeptin A] ({Tyr-CO}-[dK]V[hTyr][NMeA]F; lactam 1-C)	2.64
CC(C)[C@H]1NC(=O)[C@H](NC(=O)N[C@@H](Cc2ccccc2)C(=O)O)CCCCNC(=O)[C@H](CCc2ccc(O)c(Cl)c2)NC(=O)CN(C)C(=O)[C@H](CCc2ccc(O)cc2)NC1=O [Compound 10, Anabaenopeptin SA10] ({Phe-CO}-[dK][dV][hTyr][Sar][X1]; lactam 1-C)	3.85
CC[C@@H](C)[C@H](NC(=O)N[C@@H]1CCCCNC(=O)[C@H](Cc2ccccc2)NC(=O)[C@H](CC(N)=O)N(C)C(=O)[C@H](CCCCc2ccccc2)NC(=O)[C@@H]([C@@H](C)CC)NC1=O)C(=O)O [Compound 8, Anabaenopeptin SA8] ({aIle-CO}-[dK][d(aIle)][Nle(6-Ph)][NMeN]F; lactam 1-C)	3.68
CC[C@H](C)[C@H]1NC(=O)[C@H](NC(=O)N[C@@H](CCCCN)C(=O)O)CCCCNC(=O)[C@H](Cc2ccccc2)NC(=O)[C@H](C)N(C)C(=O)[C@H](CCc2ccc(O)cc2)NC1=O [Compound 17, Anabaenopeptin SA3] ({Lys-CO}-[dK][d(aIle)][hTyr][NMeA]F; lactam 1-C)	0.32
CC[C@@H](C)[C@H](NC(=O)N[C@@H]1CCCCNC(=O)[C@H](Cc2ccccc2)NC(=O)[C@H](CC(N)=O)N(C)C(=O)[C@H](CCc2ccccc2)NC(=O)[C@H]([C@H](C)CC)NC1=O)C(=O)O [Compound 18, Anabaenopeptin SA6] ({aIle-CO}-[dK][aIle][hPhe][NMeN]F; lactam 1-C)	4.71
CC[C@@H](C)C1NC(=O)[C@H](NC(=O)N[C@@H](Cc2ccccc2)C(=O)O)CCCCNC(=O)[C@H](CCc2ccc(O)c(Cl)c2)NC(=O)CN(C)C(=O)[C@H](CCc2ccc(O)cc2)NC1=O (stereo partly drawn) [Compound 11, Anabaenopeptin SA11]	4.18
CC(C)[C@H]1NC(=O)[C@H](NC(=O)N[C@@H](CCCN=C(N)N)C(=O)O)CCCCNC(=O)[C@H](Cc2ccccc2)NC(=O)[C@H](CO)N(C)C(=O)[C@H](CCc2ccc(O)cc2)NC1=O [Compound 19, Anabaenopeptin SA2] ({Arg-CO}-[dK][dV][hTyr][NMeS]F; lactam 1-C)	1.20
CC(C)[C@H]1NC(=O)[C@H](NC(=O)N[C@@H](Cc2ccc(O)cc2)C(=O)O)CCCCNC(=O)[C@H](Cc2ccccc2)NC(=O)[C@H](CO)N(C)C(=O)[C@H](CCc2ccc(O)cc2)NC1=O [Compound 20, Anabaenopeptin SA13] ({Tyr-CO}-[dK][dV][hTyr][NMeS]F; lactam 1-C)	3.40
